# Assayed target: Alpha-1B adrenergic receptor (Homo sapiens, UniProt P35368)
# Sequence (P35368 whole entry): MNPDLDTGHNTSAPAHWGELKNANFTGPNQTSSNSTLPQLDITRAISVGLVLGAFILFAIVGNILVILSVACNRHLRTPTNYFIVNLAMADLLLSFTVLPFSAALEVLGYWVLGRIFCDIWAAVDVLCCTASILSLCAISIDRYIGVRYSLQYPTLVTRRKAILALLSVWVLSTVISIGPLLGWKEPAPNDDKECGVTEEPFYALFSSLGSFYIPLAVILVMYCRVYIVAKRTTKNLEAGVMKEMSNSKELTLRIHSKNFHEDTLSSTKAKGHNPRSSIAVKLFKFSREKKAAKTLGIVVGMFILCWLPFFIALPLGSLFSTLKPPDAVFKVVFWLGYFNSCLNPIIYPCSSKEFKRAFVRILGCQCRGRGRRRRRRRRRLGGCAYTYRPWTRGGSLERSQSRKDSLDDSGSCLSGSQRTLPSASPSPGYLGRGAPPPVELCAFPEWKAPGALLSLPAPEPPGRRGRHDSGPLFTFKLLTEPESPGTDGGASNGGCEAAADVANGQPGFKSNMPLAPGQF
# Procedure details: Displacement of [3H]prazosin from human recombinant alpha1B adrenoceptor expressed in CHO cell membrane after 30 mins by liquid scintillation counting
Measured metric: Ki (nM)

[a] c1ccc(OCCNC[C@H]2COC(c3ccccc3)(c3ccccc3)O2)cc1
[b] c1ccc(OCCNC[C@@H]2COC(c3ccccc3)(c3ccccc3)O2)cc1
Incoming: Dear colleague, could you let me know whether a or b has the lower recorded Ki? Thanks. Identify your selection by its label.
Outgoing: b
(b: 79.4 nM, a: 115 nM)

---

# Assayed target: Alpha-1A adrenergic receptor (Homo sapiens, UniProt P35348)
# Sequence (P35348 whole entry): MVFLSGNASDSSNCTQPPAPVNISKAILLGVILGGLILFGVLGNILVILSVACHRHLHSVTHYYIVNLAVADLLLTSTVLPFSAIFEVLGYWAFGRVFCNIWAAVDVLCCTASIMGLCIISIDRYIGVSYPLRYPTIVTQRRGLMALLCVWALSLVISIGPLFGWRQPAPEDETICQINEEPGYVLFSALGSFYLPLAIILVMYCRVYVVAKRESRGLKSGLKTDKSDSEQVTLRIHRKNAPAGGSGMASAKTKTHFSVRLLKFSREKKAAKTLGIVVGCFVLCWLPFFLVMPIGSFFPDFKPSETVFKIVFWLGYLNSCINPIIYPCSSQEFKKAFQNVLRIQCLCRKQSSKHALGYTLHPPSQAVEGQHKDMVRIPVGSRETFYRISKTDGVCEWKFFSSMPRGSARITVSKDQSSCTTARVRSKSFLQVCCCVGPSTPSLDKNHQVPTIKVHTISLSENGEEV
# Procedure details: Displacement of [3H]prazosin from human recombinant alpha1A adrenoceptor expressed in CHO cell membrane after 30 mins by liquid scintillation counting
pKi: −log10 of the molar value.
Measured metric: pKi

[P] c1ccc(OCCNC[C@@H]2COC(c3ccccc3)(c3ccccc3)O2)cc1
[Q] c1ccc(OCCNC[C@H]2COC(c3ccccc3)(c3ccccc3)O2)cc1
Incoming: Out of P and Q , name the one with the higher pKi. Identify your selection by its label.
Outgoing: P

---

# Assayed target: UniProt:P25100
# Sequence (P25100 whole entry): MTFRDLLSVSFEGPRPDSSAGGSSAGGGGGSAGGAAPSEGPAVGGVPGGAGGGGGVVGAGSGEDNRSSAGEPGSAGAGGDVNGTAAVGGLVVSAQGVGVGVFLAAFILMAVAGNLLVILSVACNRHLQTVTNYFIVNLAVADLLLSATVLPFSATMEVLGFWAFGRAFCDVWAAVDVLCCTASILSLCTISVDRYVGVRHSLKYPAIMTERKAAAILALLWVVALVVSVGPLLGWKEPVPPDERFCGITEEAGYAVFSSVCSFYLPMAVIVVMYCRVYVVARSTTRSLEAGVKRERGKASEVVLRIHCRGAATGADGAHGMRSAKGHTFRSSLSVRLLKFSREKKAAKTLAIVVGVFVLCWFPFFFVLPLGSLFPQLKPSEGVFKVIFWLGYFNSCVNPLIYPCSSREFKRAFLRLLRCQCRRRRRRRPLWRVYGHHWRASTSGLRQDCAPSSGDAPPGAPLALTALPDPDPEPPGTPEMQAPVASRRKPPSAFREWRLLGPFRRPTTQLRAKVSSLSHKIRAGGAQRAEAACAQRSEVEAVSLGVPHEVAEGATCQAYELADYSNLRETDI
# Procedure details: Displacement of [3H]prazosin from human recombinant alpha1D adrenoceptor expressed in CHO cell membrane after 30 mins by liquid scintillation counting
pKi: −log10 of the molar value.
Measured metric: pKi

c1ccc(OCCNCC2COC(c3ccccc3)(c3ccccc3)O2)cc1 (racemic): 7.93

[1] c1ccc(OCCNC[C@@H]2COC(c3ccccc3)(c3ccccc3)O2)cc1
[2] c1ccc(OCCNC[C@H]2COC(c3ccccc3)(c3ccccc3)O2)cc1
Incoming: Dear colleague, could you let me know whether 1 or 2 has the lower recorded pKi? Thanks. Identify your selection by its label.
Outgoing: 1
(1: 7.64, 2: 7.84)
